# maps each entry to its Activity (%)*
# Assay system: EGLN3
# Test: cell-based or functional assay
Where no end group is shown, it is not given here.

Binder: DTDLDLEAYAPYIPADDDFQ (not fully specified; printed as DTDLDLEAYApYIPADDDFQ) [DTDLDLEAYApYIPADDDFQ]
Activity (%)*: 90.1
--
Binder: DTDLDLEMLAPYIPMDDDFQ [Control peptide DTD20, DTDLDLEMLApYIPMDDDFQ]
Activity (%)*: 119
--
Binder: DTDLDCEALAPYIPADDDFQ [DTDLDCEALApYIPADDDFQ]
Activity (%)*: 75.8
--
Binder: DTDLDLEALAPYIPADDDFQ [DTDLDLEALApYIPADDDFQ]
Activity (%)*: 119
--
Binder: DTDLDGEALAPYIPADDDFQ [DTDLDGEALApYIPADDDFQ]
Activity (%)*: 40.9
--
Binder: DTDLDHEALAPYIPADDDFQ [DTDLDHEALApYIPADDDFQ]
Activity (%)*: 55.8
--
Binder: DTDLDLEAVAPYIPADDDFQ (not fully specified; printed as DTDLDLEAVApYIPADDDFQ) [DTDLDLEAVApYIPADDDFQ]
Activity (%)*: 117
--
Binder: DTDLDLEAEAPYIPADDDFQ [DTDLDLEAEApYIPADDDFQ]
Activity (%)*: 16.9
--
Binder: DTDLDLEAIAPYIPADDDFQ [DTDLDLEAIApYIPADDDFQ]
Activity (%)*: 104
--
Binder: DTDLDEEALAPYIPADDDFQ [DTDLDEEALApYIPADDDFQ]
Activity (%)*: 80.8
--
Binder: DTDLDLEAHAPYIPADDDFQ [DTDLDLEAHApYIPADDDFQ]
Activity (%)*: 27
--
Binder: DTDLDIEALAPYIPADDDFQ [DTDLDIEALApYIPADDDFQ]
Activity (%)*: 149
--
Binder: DTDLDTEAVAPYIPADDDFQ (not fully specified; printed as DTDLDTEAVApYIPADDDFQ) [DTDLDTEAVApYIPADDDFQ]
Activity (%)*: 26.8
